Entry source: ChEMBL document CHEMBL3769371

- Test system: NCI-H460
- assay: Antiproliferative activity against human NCI-H460 cells at 10'5 M
- Assay type: functional
Activity calls are given as the source filed them. The calls are words filed in the database; no cut-off is given here.
measurement_label: Activity

Consider the reported Activity for these compounds:
> print(dat)
                               input.smiles  target.system  readout.value
1  O=C(/C=C/c1ccccc1)n1c(-c2ccccc2O)nc2ccccc21       NCI-H460       inactive
2  COc1ccc(-c2nc3ccccc3n2C(=O)/C=C/c2ccccc2)cc1       NCI-H460       inactive
3          Cc1nc2ccccc2n1C(=O)/C=C/c1ccccc1       NCI-H460       inactive
4  O=C(/C=C/c1ccccc1)n1c(-c2ccccc2)nc2ccccc21       NCI-H460       inactive

Lookup: Which value of Activity has been reported for Cc1ccc2ncn(C(=O)/C=C/c3ccccc3)c2c1 in the records?
Found: inactive

Lookup: Which value of Activity has been reported for Cc1cc2ncn(C(=O)/C=C/c3ccccc3)c2cc1C in the records?
Found: inactive

Lookup: Which value of Activity has been reported for O=C(/C=C/c1ccccc1)n1c(-c2ccc(O)cc2)nc2ccccc21 in the records?
Found: inactive
